FYI, the data here is from patent US11261187B2.

Please go through the items and note down their Em. Max.
experiment.description: Absorbance and emission maxima of near IR fluorescent probes (Table 1)
Type: physicochemical

Please report the recorded Em. Max for Cc1nn(-c2ccc(C(N)=O)c(NCCCOCCOCCOCCOCCOCCCNC(=O)c3ccc(C4=C(/C=C/C5=[N+](CCCCS(=O)(=O)[O-])c6ccccc6C5(C)C)CCC/C4=C\C=C4\N(CCCCS(=O)(=O)O)c5ccccc5C4(C)C)cc3)c2)c2c1C(=O)CC(C)(C)C2 .
795

Please report the recorded Em. Max for Cc1nn(-c2ccc(C(N)=O)c(NCCCOCCOCCOCCOCCOCCCNCc3ccc(C4=C(/C=C/C5=[N+](CCCCS(=O)(=O)[O-])c6ccccc6C5(C)C)CCC/C4=C\C=C4\N(CCCCS(=O)(=O)O)c5ccccc5C4(C)C)cc3)c2)c2c1C(=O)CC(C)(C)C2 .
796

Please report the recorded Em. Max for Cc1nn(-c2ccc(C(N)=O)c(NCCCOCCOCCOCCOCCOCCCNCc3ccc(C4=C(/C=C/C5=[N+](CCCCS(=O)(=O)[O-])c6ccc(S(=O)(=O)O)cc6C5(C)C)CCC/C4=C\C=C4\N(CCCCS(=O)(=O)O)c5ccc(S(=O)(=O)O)cc5C4(C)C)cc3)c2)c2c1C(=O)CC(C)(C)C2 .
802
